Assay: Cell permeability in MDR1-MDCK monolayers
Format: in vitro ADME
Conditions: dog, MDR1-MDCK cells, apical to basal, pH 7.4
measuredEndpoint: Papp A→B at 2 h (×10⁻⁶ cm/s)
Answer in ×10⁻⁶ cm/s, number only, no unit symbol.

Which Papp A→B at 2 h value belongs to Nc1ccc(C(=O)c2cc3c(ccc4ccccc43)[nH]2)cc1 ? 7.8

* * *

Test: Solubility in solvents and excipients, 1 hour at room temperature, HPLC
Assay type: physicochemical
Conditions: organic solvent or mixture, thermodynamic from solid; Acetone, 1 hour at room temperature; read-out: Solubility Acetone
measuredEndpoint: solubility at 1 h (µg/mL)
Answer in µg/mL, number only, no unit symbol.

Would you please look over these solved cases?
smilesString	solubility at 1 h [µg/mL]
O=C(c1ccncc1)c1cc2c(ccc3ccccc32)[nH]1	5000
COc1cccc(C(=O)c2cc3c(ccc4ccccc43)[nH]2)c1	25800
COc1cccc(C(=O)c2cc3c(cc(F)c4ccccc43)[nH]2)c1	6200
Nc1ccc(C(=O)c2cc3c(ccc4ccccc43)[nH]2)cc1	8200
O=C(c1ccncc1)c1cc2c(cc(F)c3ccccc32)[nH]1	600

Which solubility at 1 h value belongs to COc1cc(C(=O)c2cc3c(ccc4ccccc43)[nH]2)ccc1O ? 12800

Which solubility at 1 h value belongs to COc1ccccc1C(=O)c1cc2c(ccc3ccccc32)[nH]1 ? 9300

Which solubility at 1 h value belongs to COc1cc(C(=O)c2cc3c(cc(F)c4ccccc43)[nH]2)ccc1O ? 5500
